biological target: WRN (BV08), human Werner helicase (Uniprot Q14191, amino acids 517-1235 with L1074F point mutation) (Homo sapiens (Human), UniProt Q14191, L1074F); assay: WRN (BV08) ADP-Glo assay; details: class symbols A-E, read-out: ADP-Glo_hWRN_IC50
Sequence (Q14191 other isoform, or with tags, fused parts or gaps L1074F (already in the parent)): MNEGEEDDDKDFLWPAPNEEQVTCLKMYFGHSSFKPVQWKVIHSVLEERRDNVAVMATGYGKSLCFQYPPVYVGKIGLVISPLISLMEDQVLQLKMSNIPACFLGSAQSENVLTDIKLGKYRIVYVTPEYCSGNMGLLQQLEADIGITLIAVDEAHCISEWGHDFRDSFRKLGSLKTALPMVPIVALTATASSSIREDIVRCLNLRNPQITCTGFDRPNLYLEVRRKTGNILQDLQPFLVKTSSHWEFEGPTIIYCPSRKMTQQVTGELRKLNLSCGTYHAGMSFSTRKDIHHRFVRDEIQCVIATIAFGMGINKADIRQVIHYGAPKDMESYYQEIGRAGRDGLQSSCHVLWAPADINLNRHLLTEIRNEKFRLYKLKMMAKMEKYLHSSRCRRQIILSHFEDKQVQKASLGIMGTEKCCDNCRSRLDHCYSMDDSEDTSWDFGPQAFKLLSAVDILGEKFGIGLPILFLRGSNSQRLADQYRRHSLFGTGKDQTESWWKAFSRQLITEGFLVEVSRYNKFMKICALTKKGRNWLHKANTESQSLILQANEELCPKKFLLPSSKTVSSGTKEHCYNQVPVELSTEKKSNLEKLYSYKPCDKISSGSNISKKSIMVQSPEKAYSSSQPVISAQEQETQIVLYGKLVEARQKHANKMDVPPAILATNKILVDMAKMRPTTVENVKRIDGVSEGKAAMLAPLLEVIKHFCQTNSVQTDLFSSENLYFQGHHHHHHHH
pIC50: −log10 of the molar value.
Overview of reported pIC50 across a group of compounds:

{"COMPOUND": "CCc1c(N2CCN(C(=O)c3ncnc(C)c3O)CC2)c(=O)c2nc(N(C)C)cnc2n1CC(=O)Nc1c(F)cc(C(F)(F)F)cc1Cl", "pIC50": "7.30 to 8.30"}
{"COMPOUND": "CCc1c(N2CCN(C(=O)c3ncnc(C)c3O)CC2)c(=O)c2nc(/C=C/C(=O)N(C)C)cnc2n1CC(=O)Nc1ccc(C(F)(F)F)cc1Cl", "pIC50": "7.00 to 7.30"}
{"COMPOUND": "CCc1c(N2C[C@@H]3CC[C@H]2CN3C(=O)c2ncnc(C)c2O)c(=O)c2nc(N(C)C)cnc2n1CC(=O)Nc1ccc(C(F)(F)F)cc1Cl (single isomer, unassigned)", "pIC50": "6.30 to 7.00"}
{"COMPOUND": "CCc1c(N2CCN(C(=O)c3ncnc(C)c3O)CC2)c(=O)c2nc(-c3ccnc(OC)c3)c(C)nc2n1CC(=O)Nc1ccc(C(F)(F)F)cc1Cl", "pIC50": "7.30 to 8.30"}
{"COMPOUND": "CCc1c(N2CCN(C(=O)c3ncnc(C)c3O)CC2)c(=O)c2nc(-c3ccnn3C)cnc2n1CC(=O)Nc1ccc(C(F)(F)F)cc1Cl", "pIC50": "7.30 to 8.30"}
{"COMPOUND": "CCc1c(N2CCN(C(=O)c3ncnc(C)c3O)CC2)c(=O)c2nc(C(=O)NC)cnc2n1CC(=O)Nc1ccc(C(F)(F)F)cc1Cl", "pIC50": "6.30 to 7.00"}
{"COMPOUND": "CCc1c(N2CCN(C(=O)c3c(OC)ncc(COC)c3O)[C@H]3CC[C@@H]32)c(=O)c2nc(N(C)C)cnc2n1CC(=O)Nc1ccc(C(F)(F)F)cc1Cl", "pIC50": "7.30 to 8.30"}
{"COMPOUND": "CCc1c(N2CCN(C(=O)c3ncnc(C)c3O)[C@H]3CC[C@@H]32)c(=O)c2nc(C)c(C)nc2n1CC(=O)Nc1ccc(C(F)(F)F)cc1F", "pIC50": "7.30 to 8.30"}
{"COMPOUND": "CCc1c(N2CCN(C(=O)c3c(O)ccc4nc[nH]c34)CC2)c(=O)c2ncc(C)nc2n1CC(=O)Nc1ccc(C(F)(F)F)cc1Cl", "pIC50": "7.30 to 8.30"}
{"COMPOUND": "CCc1c(N2CCN(C(=O)c3ncnc(C)c3O)CC2)c(=O)c2nc3sc(C)cc3nc2n1CC(=O)Nc1ccc(C(F)(F)F)cc1Cl", "pIC50": "≥ 8.30"}
{"COMPOUND": "CCc1c(N2CCN(C(=O)c3ncnc(C)c3O)CC2)c(=O)c2nc(N3C[C@@H]4[C@H](C3)[C@H]4N(C)C)cnc2n1CC(=O)Nc1ccc(C(F)(F)F)cc1Cl", "pIC50": "7.00 to 7.30"}
{"COMPOUND": "CCc1c(N2CCN(C(=O)c3c(OC)ncc(OC)c3O)[C@H]3CC[C@@H]32)c(=O)c2nc(N(C)C)cnc2n1CC(=O)Nc1ccc(C(F)(F)F)cc1Cl", "pIC50": "7.30 to 8.30"}
